Value source: paper PMC7182988

TESTED TARGET: human recombinant COX-1 (Homo sapiens)
Sequence (P23219 24-599): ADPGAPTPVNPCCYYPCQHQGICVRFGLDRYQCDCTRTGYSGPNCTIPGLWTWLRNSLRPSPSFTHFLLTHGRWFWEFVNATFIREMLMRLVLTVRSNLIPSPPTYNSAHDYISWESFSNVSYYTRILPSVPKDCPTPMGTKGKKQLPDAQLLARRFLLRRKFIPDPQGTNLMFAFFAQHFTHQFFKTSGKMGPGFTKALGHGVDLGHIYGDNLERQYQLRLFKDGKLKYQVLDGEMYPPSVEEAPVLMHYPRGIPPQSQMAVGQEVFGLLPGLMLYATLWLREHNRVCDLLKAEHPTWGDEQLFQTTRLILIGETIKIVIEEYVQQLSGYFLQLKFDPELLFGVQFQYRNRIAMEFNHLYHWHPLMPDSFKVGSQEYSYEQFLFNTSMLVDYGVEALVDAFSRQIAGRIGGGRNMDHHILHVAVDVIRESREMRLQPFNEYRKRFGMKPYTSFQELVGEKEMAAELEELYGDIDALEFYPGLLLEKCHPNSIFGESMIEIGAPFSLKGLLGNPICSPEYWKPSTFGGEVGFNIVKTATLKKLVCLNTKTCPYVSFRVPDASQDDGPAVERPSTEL
ASSAY REMARKS: COX-1
Type: biochemical
OUTCOME MEASURE: pIC50
Formally, pIC50 is defined as -log10 of the concentration c, with c in mol/L.

>>> endpoint_result("O=C(c1ccc(Cl)cc1)C1C(c2cc3ccccc3o2)C2CSCN2[C@@]12C(=O)Nc1ccc(Cl)cc12 (stereo partly shown) [Compound 5p]")
4.42
>>> endpoint_result("O=C(c1ccc(Br)cc1)C1C(c2cc3ccccc3o2)C2CSCN2[C@@]12C(=O)Nc1ccc(Cl)cc12 (stereo partly shown) [Compound 5i]")
4.53
>>> endpoint_result("O=C(c1ccc(C(F)(F)F)cc1)C1C(c2cc3ccccc3o2)C2CSCN2[C@@]12C(=O)Nc1ccc(Cl)cc12 (stereo partly shown) [Compound 5l]")
4.51
>>> endpoint_result("O=C(c1ccc(F)cc1)C1C(c2cc3ccccc3o2)C2CSCN2[C@@]12C(=O)Nc1ccc(Cl)cc12 (stereo partly shown) [Compound 5c]")
4.43
>>> endpoint_result("O=C(c1ccc(Br)cc1)C1C(c2cc3ccccc3o2)C2CSCN2[C@@]12C(=O)Nc1ccc(Br)cc12 (stereo partly shown) [Compound 5h]")
4.45
>>> endpoint_result("O=C(c1ccccc1)C1C(c2cc3ccccc3o2)C2CSCN2[C@@]12C(=O)Nc1ccc(Cl)cc12 (stereo partly shown) [Compound 5a]")
4.69

Shifting focus to the compound that follows.
Entry C[C@H]1[C@H](C)CC[C@]2(C)CC[C@]3(C)C(=CC[C@@H]4[C@@]5(C)CC[C@@H](O)[C@](C)(C(=O)O)[C@@H]5CC[C@]43C)[C@H]12 [β-Boswellic acid, reference compound] , tested on human recombinant COX-1 (Homo sapiens), has a reported pIC50 of 4.74

* * *

Parameter inhibition at 40 µg/mL: see the listing below.
TESTED TARGET: human recombinant COX-2 (Homo sapiens, UniProt P35354)
Sequence (P35354 18-604): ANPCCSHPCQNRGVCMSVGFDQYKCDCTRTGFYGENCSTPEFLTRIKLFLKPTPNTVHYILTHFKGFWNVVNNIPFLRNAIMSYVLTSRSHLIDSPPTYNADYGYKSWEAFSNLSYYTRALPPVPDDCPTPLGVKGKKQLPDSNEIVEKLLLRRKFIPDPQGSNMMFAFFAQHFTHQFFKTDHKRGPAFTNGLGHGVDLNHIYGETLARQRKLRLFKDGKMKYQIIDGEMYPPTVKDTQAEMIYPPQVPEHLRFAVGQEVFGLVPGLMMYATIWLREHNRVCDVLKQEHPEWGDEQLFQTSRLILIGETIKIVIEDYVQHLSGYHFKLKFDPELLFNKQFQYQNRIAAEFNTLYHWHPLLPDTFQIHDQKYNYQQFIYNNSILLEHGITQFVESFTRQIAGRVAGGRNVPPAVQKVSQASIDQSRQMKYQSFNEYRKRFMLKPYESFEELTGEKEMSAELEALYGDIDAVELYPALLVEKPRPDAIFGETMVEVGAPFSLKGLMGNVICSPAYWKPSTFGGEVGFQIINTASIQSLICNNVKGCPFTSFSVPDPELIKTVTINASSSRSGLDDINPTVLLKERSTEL
ASSAY REMARKS: COX-2
Assay type: biochemical
CONDITION SUMMARY: read-out: COX-2% (percentage of inhibition of COX-2)
Number in %, nothing else.

Reference set, count: 2
>>> endpoint_result("O=C(c1ccc(Br)cc1)C1C(c2cc3ccccc3o2)C2CSCN2[C@@]12C(=O)Nc1ccc(Br)cc12 (stereo partly drawn) [Compound 5h]")
9.8
>>> endpoint_result("O=C(c1ccc(Cl)cc1)C1C(c2cc3ccccc3o2)C2CSCN2[C@@]12C(=O)Nc1ccc(Cl)cc12 (stereo partly drawn) [Compound 5p]")
9.98

Shifting focus to the compound that follows.
The compound O=C(c1ccc(Br)cc1)C1C(c2cc3ccccc3o2)C2C3CCCCC3CN2[C@@]12C(=O)Nc1ccc(Cl)cc12 (stereo partly drawn) [Compound 5f] showed inhibition at 40 µg/mL equal to 5.92
